Source of measurements: ChEMBL document CHEMBL1143306

procedure.text: Volume of distribution at steady state in rat at 3 mg/kg, iv and 10 mg/kg, po
Type: ADME, organism-based
cond: in vivo, read-out: Vdss
The reader will find reported Vd values listed item by item below.

smiles.notation: CCOc1cc2ncc(C(N)=O)c(Nc3cccc(Cl)c3F)c2cc1N1CCN(C)CC1
Vd / L/kg: 1.9
--
smiles.notation: COCCOc1cc2ncc(C(N)=O)c(Nc3cc(C)ccc3F)c2cc1N1CCN(C)CC1
Vd / L/kg: 4.7
--
smiles.notation: CCOc1cc2ncc(C(N)=O)c(Nc3ccc(C)cc3F)c2cc1N1CCN(C)CC1
Vd / L/kg: 1.8
--
smiles.notation: CCOc1cc2ncc(C(N)=O)c(Nc3ccc(F)cc3F)c2cc1N1CCOCC1
Vd / L/kg: 1.1
--
smiles.notation: COCCOc1cc2ncc(C(N)=O)c(Nc3ccc(F)cc3F)c2cc1N1CCN(C)CC1
Vd / L/kg: 18
--
smiles.notation: CCOc1cc2ncc(C(N)=O)c(Nc3cccc(Cl)c3Cl)c2cc1N1CCN(C)CC1
Vd / L/kg: 3.5
--
smiles.notation: CCOc1cc2ncc(C(N)=O)c(Nc3ccc(F)cc3F)c2cc1N1CCCN(C)CC1
Vd / L/kg: 16
--
smiles.notation: COCCOc1cc2ncc(C(N)=O)c(Nc3ccc(C)cc3F)c2cc1N1CCN(C)CC1
Vd / L/kg: 8.6
--
smiles.notation: CN1CCN(c2cc3c(Nc4cccc(Cl)c4Cl)c(C(N)=O)cnc3cc2F)CC1
Vd / L/kg: 1.1
--
smiles.notation: CCOc1cc2ncc(C(N)=O)c(Nc3cccc(Cl)c3Cl)c2cc1N1CCN(C(=O)CO)CC1
Vd / L/kg: 2.2
--
smiles.notation: CCOc1cc2ncc(C(N)=O)c(Nc3ccc(F)c(Cl)c3)c2cc1N1CCN(C)CC1
Vd / L/kg: 9.3
--
smiles.notation: COc1cc2ncc(C(N)=O)c(Nc3ccc(Cl)cc3Cl)c2cc1N1CCN(C)CC1
Vd / L/kg: 8.7
--
smiles.notation: COc1cc2ncc(C(N)=O)c(Nc3ccc(F)cc3F)c2cc1OC
Vd / L/kg: 0.9
--
smiles.notation: CN1CCN(c2cc3c(Nc4ccc(F)cc4F)c(C(N)=O)cnc3cc2F)CC1
Vd / L/kg: 1.4
--
smiles.notation: CCOc1cc2ncc(C(N)=O)c(Nc3cc(C)ccc3F)c2cc1N1CCN(C)CC1
Vd / L/kg: 5.3
--
smiles.notation: COc1cc2ncc(C(N)=O)c(Nc3cccc(Cl)c3Cl)c2cc1N1CCN(C)CC1
Vd / L/kg: 6.8
--
smiles.notation: CN1CCN(c2ccc3ncc(C(N)=O)c(Nc4ccc(F)cc4F)c3c2)CC1
Vd / L/kg: 7.6
--
smiles.notation: CCOc1cc2ncc(C(N)=O)c(Nc3cccc(Cl)c3Cl)c2cc1N1CCCN(C)CC1
Vd / L/kg: 40
--
smiles.notation: CCOc1cc2ncc(C(N)=O)c(Nc3ccc(F)cc3F)c2cc1N1CCN(C2CC2)CC1
Vd / L/kg: 0.6
--
smiles.notation: CCOc1cc2ncc(C(N)=O)c(Nc3ccc(Cl)c(Cl)c3)c2cc1N1CCN(C)CC1
Vd / L/kg: 3.7
--
smiles.notation: CCOc1cc2ncc(C(N)=O)c(Nc3ccc(F)cc3F)c2cc1N1CCN(C)CC1
Vd / L/kg: 2.5
--
smiles.notation: COc1cc2ncc(C(N)=O)c(Nc3ccc(F)cc3F)c2cc1N1CCN(C)CC1
Vd / L/kg: 2.3
--
smiles.notation: CCOc1cc2ncc(C(N)=O)c(Nc3cc(F)ccc3F)c2cc1N1CCN(C)CC1
Vd / L/kg: 2.9
--
smiles.notation: COCCOc1cc2ncc(C(N)=O)c(Nc3cccc(Cl)c3Cl)c2cc1N1CCN(C)CC1
Vd / L/kg: 21
--
smiles.notation: CC(C)Oc1cc2ncc(C(N)=O)c(Nc3ccc(F)cc3F)c2cc1N1CCN(C)CC1
Vd / L/kg: 1.4
--
smiles.notation: CCOc1cc2ncc(C(N)=O)c(Nc3ccc(F)cc3F)c2cc1N1CCN(CC)CC1
Vd / L/kg: 3.6
--
smiles.notation: CCOc1cc2ncc(C(N)=O)c(Nc3cccc(Cl)c3Cl)c2cc1N1CCN(CC)CC1
Vd / L/kg: 6.8
--
smiles.notation: CN1CCN(c2ccc3ncc(C(N)=O)c(Nc4cccc(Cl)c4Cl)c3c2)CC1
Vd / L/kg: 5.9
--
smiles.notation: COc1cc2ncc(C(N)=O)c(Nc3ccc(Cl)c(Cl)c3)c2cc1N1CCN(C)CC1
Vd / L/kg: 3.8
--
smiles.notation: CCOc1cc2ncc(C(N)=O)c(Nc3cccc(Cl)c3Cl)c2cc1N1CCN(C(C)=O)CC1
Vd / L/kg: 2.3
--
smiles.notation: CCOc1cc2ncc(C(N)=O)c(Nc3cccc(Cl)c3Cl)c2cc1N1CCN(C(C)C)CC1
Vd / L/kg: 11
